system: HCT-116 cells; assay: HCT assay: real-time proliferation assay using xCELLigence system; assay type: cell-based; conditions: HCT-116 cells, xCELLigence impedance
outcomeMeasure: pIC50
Kindly note that pIC50 refers to -log10 of the concentration in mol/L and answer with the value alone.

## Task Lab note: record pIC50 of N=C(N)c1ccc(OCCCCCCOc2cc(OCCCCCCOc3ccc(C(=N)N)cc3)cc(OCCCCCCOc3ccc(C(=N)N)cc3)c2)cc1 [Compound 2, Trihexamidine Isethionate] tested on HCT-116 cells.
## Result 5.58

Data provenance: patent US11098009B2
